I'd be grateful if you could share measured inhibition for these entries.
target: PEG-3 (UniProt Q6IN02); experiment: Peg3 promoter luciferase inhibitors, potency, dose response, cell-based, HeLa, CREF/GAPDH counter-screen panel (AID 624167); conditions: CREF/GAPDH counter-screens; HeLa PEG-Prom luciferase reporter, overnight, run 1, dose range 1, at 100 µM (top of the series) unless noted
Sequence (Q6IN02 whole entry, looked up): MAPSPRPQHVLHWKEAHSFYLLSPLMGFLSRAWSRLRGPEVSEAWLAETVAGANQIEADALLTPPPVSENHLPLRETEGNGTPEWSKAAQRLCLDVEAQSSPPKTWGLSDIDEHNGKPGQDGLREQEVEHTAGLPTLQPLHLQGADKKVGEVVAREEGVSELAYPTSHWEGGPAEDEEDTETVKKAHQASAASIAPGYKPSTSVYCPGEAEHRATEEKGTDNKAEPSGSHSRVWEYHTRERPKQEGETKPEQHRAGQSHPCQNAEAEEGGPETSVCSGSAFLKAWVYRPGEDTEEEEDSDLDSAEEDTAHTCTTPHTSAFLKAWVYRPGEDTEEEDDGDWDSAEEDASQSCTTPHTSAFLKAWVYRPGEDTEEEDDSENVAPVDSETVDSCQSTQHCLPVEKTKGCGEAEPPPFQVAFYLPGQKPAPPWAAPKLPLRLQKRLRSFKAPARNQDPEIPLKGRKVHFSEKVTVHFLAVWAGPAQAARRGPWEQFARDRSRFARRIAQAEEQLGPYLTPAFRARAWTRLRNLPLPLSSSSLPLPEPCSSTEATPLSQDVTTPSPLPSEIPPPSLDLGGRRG
Field: numeric (%). Do not append units.

Note to self: inhibition recorded for Cc1ccc(/C=C2\SC(=S)N(CCCC(=O)NNC(=O)c3ccccc3O)C2=O)cc1 was 81.6

Sure, the documented inhibition for O=C(Nc1ccc2oc(-c3ccncc3)nc2c1)c1ccc([N+](=O)[O-])o1 is 99

So, COc1cccc2nc3c(C(=O)NCCN(C)C)cccc3cc12 ? Its inhibition was 98.9

Reported inhibition for COC(=O)c1ccc(Nc2cc(C)nc3ccc(C)cc23)cc1 was 98.7

// sample Cc1ccc(N(Cc2cc(=O)[nH]c3ccccc23)C(=O)CCl)c(C)c1 , its inhibition was 101

Reported inhibition of O=C(O)c1cccc(COc2ccc3c(c2)CCC3)c1 : 98.5

Kindly note the recorded inhibition for CC(C)CN(C(=O)COC(=O)/C=C/c1ccc(Cl)c(Cl)c1)c1c(N)n(Cc2ccccc2)c(=O)[nH]c1=O , which is -7.53

The value of inhibition measured for the compound COc1ccc2c(c1)[nH]c1c(=O)n(/N=C/C3C(C)C=C(C)CC3C)c(=O)[nH]c12 (stereo not given) turned out to be -108

inhibition reading for Cc1cccc(NC(=O)CSc2nc3ccccc3c3nc(CCc4c(C)n[nH]c4C)nn23)c1 : 97.9

Lab book: inhibition of Cc1ccc2nc(-c3ccc4c(c3)OCCO4)cn2c1 noted as 98.2
